Below, log10 IC50 values reported for Galectin-3 (Homo sapiens) across several publications.
Log10 applied to IC50; unit prior to transform: nM.

Study these solved cases before continuing.
CO[C@@H]1[C@@H](n2cc(-c3cc(F)c(F)c(F)c3)nn2)[C@@H](O)[C@@H](CO)O[C@H]1C(=O)N(Cc1nc2ccccc2cc1Cl)[C@H]1CCCC[C@@H]1O: 2.29
O=C(O)CO[C@@H]1[C@@H](n2cc(-c3cc(F)c(F)c(F)c3)nn2)[C@@H](O)[C@@H](CO)O[C@@H]1CC1=NOC2(CCCCC2)C1: 1.95
CO[C@@H]1[C@@H](n2cc(-c3cc(F)c(F)c(F)c3)nn2)[C@@H](O)[C@@H](CO)O[C@@H]1CC1CC(C2CCCC2)=NO1 (stereo partly drawn): 2.83
CO[C@@H]1[C@@H](n2cc(-c3cc(F)cc(Cl)c3)nn2)[C@@H](O)[C@@H](CO)O[C@@H]1Cc1cc(C2CCCCC2)on1: 2.99
Nc1nc(Cl)c(CN(C(=O)[C@@H]2O[C@H](CO)[C@H](O)[C@H](n3cc(-c4cc(F)c(F)c(F)c4)nn3)[C@H]2O)[C@H]2CCCC[C@@H]2O)s1: 2.62

Please find the next molecule below.
Simply: CO[C@@H]1[C@@H](n2cc(-c3ccc(Cl)c(F)c3F)nn2)[C@@H](O)[C@@H](CO)O[C@@H]1CC1=NOC2(CCC(C(C)(C)O)CC2)C1 (stereo partly drawn) , Galectin-3 (Homo sapiens), log10 IC50 = 2.60

----------
Below, IC50 values reported for Galectin-3 (Homo sapiens, UniProt P17931) across several publications.
Number only, in nM; omit the unit.

Study these solved cases before continuing.
CO[C@@H]1[C@@H](n2cc(-c3ccc(C)c(F)c3F)nn2)[C@@H](O)[C@@H](CO)O[C@@H]1Cc1cc([C@@H]2CC[C@H]2O)on1: 93
CO[C@@H]1[C@@H](n2cc(-c3cc(F)c(F)c(F)c3)nn2)[C@@H](O)[C@@H](CO)O[C@@H]1CC1=NOC2(CCN(C(C)=O)CC2)C1: 280
CO[C@@H]1[C@@H](n2cc(-c3ccc(C#N)c(F)c3)nn2)[C@@H](O)[C@@H](CO)O[C@H]1C(=O)N(c1cc(Cl)cc(C#N)c1)[C@H]1CCC[C@@H]1O: 102
CO[C@@H]1[C@@H](n2cc(-c3ccc(Br)c(F)c3)nn2)[C@@H](O)[C@@H](CO)O[C@H]1C(=O)N(c1cc(Cl)cc(C#N)c1)[C@H]1CCCC[C@@H]1O: 34
CO[C@@H]1[C@@H](n2cc(-c3cc(F)c(F)c(F)c3)nn2)[C@@H](O)[C@@H](CO)O[C@H]1C(=O)N(Cc1cccnc1C(F)(F)F)[C@H]1CCCC[C@@H]1O: 159

Simply: CNC(=O)[C@@H](OCc1ccc(Cl)c(F)c1)[C@@H]1OC(CO)[C@H](O)C(n2cc(-c3cc(F)c(F)c(F)c3)nn2)C1O (some centres unmarked) , Galectin-3 (Homo sapiens, UniProt P17931), IC50 = 180

Simply: CO[C@@H]1[C@@H](n2cc(-c3cc(F)c(F)c(F)c3)nn2)[C@@H](O)[C@@H](CO)O[C@@H]1Cc1cn(C2CCS(=O)(=NC3CCC(F)(F)CC3)CC2)nn1 (some centres unmarked) , Galectin-3 (Homo sapiens, UniProt P17931), IC50 = 71

Simply: CC(C)(C)OC(=O)N1CCC(C2=NOC(C[C@H]3O[C@H](CO)[C@H](O)[C@H](n4cc(-c5ccc(F)cn5)nn4)[C@H]3O)C2)CC1 (some centres unmarked) , Galectin-3 (Homo sapiens, UniProt P17931), IC50 = 1840

Simply: COC1C(n2cc(-c3cc(F)c(F)c(F)c3)nn2)[C@@H](O)C(CO)O[C@H]1[C@H](OCc1ccc(Br)cc1)C(=O)OC(C)C (some centres unmarked) , Galectin-3 (Homo sapiens, UniProt P17931), IC50 = 103

Simply: CC(C)(C)OC(=O)N1CCC(C2=NOC(C[C@H]3O[C@H](CO)[C@H](O)[C@H](n4cc(-c5cc(F)c(F)c(F)c5)nn4)[C@H]3OCC(=O)N3CCOCC3)C2)CC1 (mixture of isomers) , Galectin-3 (Homo sapiens, UniProt P17931), IC50 = 120

Simply: CO[C@@H]1[C@@H](n2cc(-c3cc(F)c(F)c(F)c3)nn2)[C@@H](O)[C@@H](CO)O[C@@H]1CC1CC(C2CCN(C(=O)OC(C)(C)C)CC2)=NO1 (some centres unmarked) , Galectin-3 (Homo sapiens, UniProt P17931), IC50 = 290

----------
Below, IC50 values reported for Galectin-3 (Homo sapiens, UniProt P17931) across several publications.
Number only, in µM; omit the unit.

Per the records, this compound ( OC[C@H]1O[C@H](Cc2cc(C3CCN(c4ncco4)CC3)on2)[C@H](O)[C@@H](n2cc(-c3cc(F)c(F)c(F)c3)nn2)[C@H]1O ) has IC50 equal to 0.047

Per the records, this compound ( CO[C@@H]1[C@@H](n2cc(-c3cc(F)c(F)c(F)c3)nn2)[C@@H](O)[C@@H](CO)O[C@H]1C(=O)N(c1cccc(I)c1)[C@H]1CC[C@@H]1O ) has IC50 equal to 0.197

Per the records, this compound ( CO[C@@H]1[C@@H](n2cc(-c3cc(F)c(F)c(F)c3)nn2)[C@@H](O)[C@@H](CO)O[C@H]1C(=O)N(c1cc(Br)cc(C#N)c1)[C@H]1CC[C@@H]1O ) has IC50 equal to 0.0445

Per the records, this compound ( CO[C@@H]1[C@@H](n2cc(-c3cccc(F)c3)nn2)[C@@H](O)[C@@H](CO)O[C@@H]1Cc1cn(C2CCN(C(=O)OCc3ccccc3)CC2)nn1 ) has IC50 equal to 0.04

Per the records, this compound ( CO[C@@H]1[C@@H](n2cc(-c3cc(F)c(F)c(F)c3)nn2)[C@@H](O)[C@@H](CO)O[C@@H]1Cc1cn(C2CCN(S(C)(=O)=O)CC2)nn1 ) has IC50 equal to 0.012

Per the records, this compound ( CO[C@@H]1[C@@H](n2cc(-c3ccc(Cl)c(Cl)c3)nn2)[C@@H](O)[C@@H](CO)O[C@H]1C(=O)N(c1cc(Br)cc(C#N)c1)[C@@H]1CC[C@H]1O ) has IC50 equal to 0.446

Per the records, this compound ( CO[C@@H]1[C@@H](n2cc(-c3cc(F)c(F)c(F)c3)nn2)[C@@H](O)[C@@H](CO)O[C@@H]1Cc1cc(C2(C#N)CCCC2)on1 ) has IC50 equal to 0.097

Per the records, this compound ( CO[C@@H]1[C@@H](n2cc(-c3ccc(C)c(F)c3)nn2)[C@@H](O)[C@@H](CO)O[C@H]1C(=O)N(c1cc(C)cc(C#N)c1)[C@H]1CCC[C@@H]1O ) has IC50 equal to 0.0332

Per the records, this compound ( CO[C@@H]1[C@@H](n2cc(-c3ccc(Cl)c(F)c3F)nn2)[C@@H](O)[C@@H](CO)O[C@@H]1CN1CC2(CCCCC2)CNC1=O ) has IC50 equal to 0.074

Per the records, this compound ( CO[C@@H]1[C@@H](n2cc(-c3ccc(C#N)c(F)c3F)nn2)[C@@H](O)[C@@H](CO)O[C@@H]1Cc1cc(C(C)(C)C)no1 ) has IC50 equal to 0.15

Per the records, this compound ( CO[C@@H]1[C@@H](n2cc(-c3cc(F)c(F)c(F)c3)nn2)[C@@H](O)[C@@H](CO)O[C@@H]1C[C@H]1CN(C2CCN(C(=O)OC(C)(C)C)CC2)C(=O)O1 ) has IC50 equal to 0.34

----------
pIC50: −log10 of the molar value.
Below, pIC50 values reported for UniProt P17931 across several publications.
Hi, to clarify the labels: 1 covers pIC50 from 7 upward, 0 covers anything below 7.

OC[C@H]1O[C@H](Cc2cc(C3CCOCC3)on2)[C@H](O)[C@@H](n2cc(-c3cc(F)c(F)c(F)c3)nn2)[C@H]1O: 0
CO[C@@H]1[C@@H](n2cc(-c3cc(F)c(F)c(Cl)c3)nn2)[C@@H](O)[C@@H](CO)O[C@@H]1CC1=NOC2(CCCCC2)C1: 0

Problem: Given CO[C@@H]1[C@@H](n2cc(-c3ccc(C)c(F)c3)nn2)[C@@H](O)[C@@H](CO)O[C@@H]1Cc1cc(C2CCN(C(C)=O)CC2)on1 , state whether its pIC50 is at least 7.
Solution: 1

Problem: Given CO[C@@H]1[C@@H](n2cc(-c3ccc(Cl)c(F)c3)nn2)[C@@H](O)[C@@H](CO)O[C@@H]1Cc1cc(C2CCN(C(C)=O)CC2)on1 , state whether its pIC50 is at least 7.
Solution: 1

Problem: Given O=C(O)CO[C@@H]1[C@@H](n2cc(-c3cc(F)c(F)c(F)c3)nn2)[C@@H](O)[C@@H](CO)O[C@H]1C(=O)N(c1cc(Cl)cc(Cl)c1)[C@H]1CCCC[C@@H]1O , state whether its pIC50 is at least 7.
Solution: 1

Problem: Given CC(C)(C)OC(=O)N1CCC(C2=NOC(C[C@H]3O[C@H](CO)[C@H](O)[C@H](n4cc(-c5cc(F)c(F)c(F)c5)nn4)[C@H]3OCC(F)F)C2)CC1 (mixture of isomers) , state whether its pIC50 is at least 7.
Solution: 0

Problem: Given C#Cc1cccc(CN(C(=O)[C@@H]2O[C@H](CO)[C@H](O)[C@H](n3cc(-c4cc(F)c(F)c(F)c4)nn3)[C@H]2O)[C@H]2CCCC[C@@H]2O)c1 , state whether its pIC50 is at least 7.
Solution: 0

Problem: Given Cc1ncncc1CN(C(=O)[C@@H]1O[C@H](CO)[C@H](O)[C@H](n2cc(-c3cc(F)c(F)c(F)c3)nn2)[C@H]1O)[C@H]1CCCC[C@@H]1O , state whether its pIC50 is at least 7.
Solution: 0
